ASSAY_EXPLANATION: Detection of encapsulation efficiency, drug loading concentration and total RNA concentration (RiboGreen)
Format: physicochemical
PROTOCOL_CONDITIONS: ratio vs compound 21
EXPERIMENTAL_ENDPOINT: drug loading concentration, times that of compound 21

COMPOUND	RESULT
CCCCCCCCC(CCCCCCCC)OC(=O)CCCCCCCN(CCO)CCN(CCO)CCCCCCCC(=O)OC(CCCCCCCC)CCCCCCCC [YK-403]	1.56
CCCCCCCCC(CCCCCCCC)COC(=O)CCCCCN(CCCO)CCN(CCCO)CCCCCC(=O)OCC(CCCCCCCC)CCCCCCCC [YK-422]	2.05
CCCCCCCCC(CCCCCCCC)OC(=O)CCCCCN(CCO)CCN(CCO)CCCCCC(=O)OC(CCCCCCCC)CCCCCCCC [YK-401]	1.69
CCCCCCCCC(CCCCCCCC)COC(=O)CCCCCN(CCCO)CCCN(CCCO)CCCCCC(=O)OCC(CCCCCCCC)CCCCCCCC [YK-423]	1.71
CCCCCCCCC(CCCCCCCC)C(=O)OCCCCCCN(CCO)CCN(CCO)CCCCCCOC(=O)C(CCCCCCCC)CCCCCCCC [YK-402]	1.71
CCCCCCCCCCCOC(=O)CCCN(CCO)CCN(CCO)CCCCCC(=O)OC(CCCCCCCC)CCCCCCCC [YK-407]	1.62

====

ASSAY_EXPLANATION: Detection of encapsulation efficiency, drug loading concentration and total RNA concentration (RiboGreen)
Format: physicochemical
PROTOCOL_CONDITIONS: ratio vs HIMA (HHMA)
Entries and their total RNA concentration, times that of HIMA values follow.
EXPERIMENTAL_ENDPOINT: total RNA concentration, times that of HIMA

COMPOUND	QUANTITATIVE_READOUT
CCCCCCCCC(CCCCCCCC)COC(=O)CCCCCN(CCCO)CCCN(CCCO)CCCCCC(=O)OCC(CCCCCCCC)CCCCCCCC [YK-423]	1.13
CCCCCCCCC(CCCCCCCC)OC(=O)CCCCCCCN(CCO)CCN(CCO)CCCCCCCC(=O)OC(CCCCCCCC)CCCCCCCC [YK-403]	1.11
CCCCCCCCCCCOC(=O)CCCN(CCO)CCN(CCO)CCCCCC(=O)OC(CCCCCCCC)CCCCCCCC [YK-407]	1.12
CCCCCCCCC(CCCCCCCC)C(=O)OCCCCCCN(CCO)CCN(CCO)CCCCCCOC(=O)C(CCCCCCCC)CCCCCCCC [YK-402]	1.10
CCCCCCCCC(CCCCCCCC)COC(=O)CCCCCN(CCCO)CCN(CCCO)CCCCCC(=O)OCC(CCCCCCCC)CCCCCCCC [YK-422]	1.26
CCCCCCCCC(CCCCCCCC)OC(=O)CCCCCN(CCO)CCN(CCO)CCCCCC(=O)OC(CCCCCCCC)CCCCCCCC [YK-401]	1.14

====

System: 293T cells
ASSAY_EXPLANATION: Fluorescent detection of Fluc-mRNA (cell transfection efficiency of LNP formulations)
Assay type: cell-based
PROTOCOL_CONDITIONS: ratio vs YK-417
Protocol: Seeding plate: The cells in the culture dish were digested and counted. Cells were spread in a 96-well plate at 10,000 cells per well and in a 12-well plate at 150,000 cells per well. Cells were cultured overnight until the cells adhered to the wall. The corresponding reagents were added according to the instructions of the Gaussia Luciferase Assay Kit, and the fluorescence expression intensity of each well was detected by an IVIS fluorescence detection system.
Entries and their cell transfection efficiency, times that of YK-417 values follow.
EXPERIMENTAL_ENDPOINT: cell transfection efficiency, times that of YK-417

COMPOUND	RESULT
CCCCCCCCC(CCCCCCCC)C(=O)OCCCCCCN(CCO)CCN(CCO)CCCCCCOC(=O)C(CCCCCCCC)CCCCCCCC [YK-402]	43.01
CCCCCCCCC(CCCCCCCC)COC(=O)CCCCCN(CCCO)CCCN(CCCO)CCCCCC(=O)OCC(CCCCCCCC)CCCCCCCC [YK-423]	53.09
CCCCCCCCC(CCCCCCCC)OC(=O)CCCCCN(CCO)CCN(CCO)CCCCCC(=O)OC(CCCCCCCC)CCCCCCCC [YK-401]	47.83
CCCCCCCCC(CCCCCCCC)OC(=O)CCCCCCCN(CCO)CCN(CCO)CCCCCCCC(=O)OC(CCCCCCCC)CCCCCCCC [YK-403]	44.76
CCCCCCCCCCOC(=O)CCCCCN(CCO)CCCN(CCO)CCCCCC(=O)OCC(CCCCCCCC)CCCCCCCC [YK-416]	34
CCCCCCCCC(CCCCCCCC)COC(=O)CCCCCN(CCCO)CCN(CCCO)CCCCCC(=O)OCC(CCCCCCCC)CCCCCCCC [YK-422]	54.85

====

ASSAY_EXPLANATION: Detection of encapsulation efficiency, drug loading concentration and total RNA concentration (RiboGreen)
Type: physicochemical
PROTOCOL_CONDITIONS: ratio vs compound 21
EXPERIMENTAL_ENDPOINT: total RNA concentration, times that of compound 21

SAMPLE_SMILES	QUANTITATIVE_READOUT
CCCCCCCCC(CCCCCCCC)C(=O)OCCCCCCN(CCO)CCN(CCO)CCCCCCOC(=O)C(CCCCCCCC)CCCCCCCC	1.39
CCCCCCCCC(CCCCCCCC)OC(=O)CCCCCN(CCO)CCN(CCO)CCCCCC(=O)OC(CCCCCCCC)CCCCCCCC	1.44
CCCCCCCCC(CCCCCCCC)COC(=O)CCCCCN(CCCO)CCN(CCCO)CCCCCC(=O)OCC(CCCCCCCC)CCCCCCCC	1.58
CCCCCCCCCCCOC(=O)CCCN(CCO)CCN(CCO)CCCCCC(=O)OC(CCCCCCCC)CCCCCCCC	1.41
CCCCCCCCC(CCCCCCCC)OC(=O)CCCCCCCN(CCO)CCN(CCO)CCCCCCCC(=O)OC(CCCCCCCC)CCCCCCCC	1.40
CCCCCCCCC(CCCCCCCC)COC(=O)CCCCCN(CCCO)CCCN(CCCO)CCCCCC(=O)OCC(CCCCCCCC)CCCCCCCC	1.42

====

System: female BALB/C mice
ASSAY_EXPLANATION: In vivo imaging in mice of Fluc-mRNA LNP formulations (mRNA expression and duration)
PROTOCOL_CONDITIONS: 7 d
Decide by average radiation intensity, times that of compound 21: equal to or exceeding 2 means YES, less means NO.

MOLECULE	CLASS_NAME
CCCCCCCCC(CCCCCCCC)COC(=O)CCCCCN(CCCO)CCN(CCCO)CCCCCC(=O)OCC(CCCCCCCC)CCCCCCCC [YK-422]	NO
CCCCCCCCC(CCCCCCCC)OC(=O)CCCCCCCN(CCO)CCN(CCO)CCCCCCCC(=O)OC(CCCCCCCC)CCCCCCCC [YK-403]	NO
CCCCCCCCC(CCCCCCCC)OC(=O)CCCCCN(CCO)CCN(CCO)CCCCCC(=O)OC(CCCCCCCC)CCCCCCCC [YK-401]	NO
CCCCCCCCC(CCCCCCCC)COC(=O)CCCCCN(CCCO)CCCN(CCCO)CCCCCC(=O)OCC(CCCCCCCC)CCCCCCCC [YK-423]	NO
CCCCCCCCCCCOC(=O)CCCN(CCO)CCN(CCO)CCCCCC(=O)OC(CCCCCCCC)CCCCCCCC [YK-407]	YES
CCCCCCCCC(CCCCCCCC)C(=O)OCCCCCCN(CCO)CCN(CCO)CCCCCCOC(=O)C(CCCCCCCC)CCCCCCCC [YK-402]	NO

====

Entries and their cell survival rate higher than ALC-0315 values follow.
Test system: 293T cells
ASSAY_EXPLANATION: Cell survival rate assay (CCK-8)
Format: cell-based
PROTOCOL_CONDITIONS: difference vs ALC-0315

COMPOUND	EXPERIMENTAL_TARGET	UNIT_NAME	cell survival rate higher than ALC-0315
CCCCCCCCC(CCCCCCCC)OC(=O)CCCCCN(CCO)CCN(CCO)CCCCCC(=O)OC(CCCCCCCC)CCCCCCCC [YK-401]	293T cells	%	28.00
CCCCCCCCCCCOC(=O)CCCN(CCO)CCN(CCO)CCCCCC(=O)OC(CCCCCCCC)CCCCCCCC [YK-407]	293T cells	%	24.16
CCCCCCCCC(CCCCCCCC)C(=O)OCCCCCCN(CCO)CCN(CCO)CCCCCCOC(=O)C(CCCCCCCC)CCCCCCCC [YK-402]	293T cells	%	25.49
CCCCCCCCC(CCCCCCCC)COC(=O)CCCCCN(CCCO)CCN(CCCO)CCCCCC(=O)OCC(CCCCCCCC)CCCCCCCC [YK-422]	293T cells	%	23.27
CCCCCCCCC(CCCCCCCC)OC(=O)CCCCCCCN(CCO)CCN(CCO)CCCCCCCC(=O)OC(CCCCCCCC)CCCCCCCC [YK-403]	293T cells	%	23.55
CCCCCCCCC(CCCCCCCC)COC(=O)CCCCCN(CCCO)CCCN(CCCO)CCCCCC(=O)OCC(CCCCCCCC)CCCCCCCC [YK-423]	293T cells	%	23.93
